- Tested on: Glutamate receptor ionotropic, NMDA 3A (GRIN3A) ligand-binding domain
- Procedure text: binders of NR3A ligand-binding domain, primary screen, biophysical, differential scanning fluorimetry, uHTS (AID 1259313)
- Protocol conditions: NR3A LBD differential scanning fluorimetry, at 25 µM, stronger effect = higher value, 0% = protein alone, 100% = glycine-bound protein
Screen size: about 340,000 compounds; about 8,500 (2.5%) were called active. Shown is part of a subset that was picked to be rich in actives.
# key: entry, value: Tm shift relative to glycine control

{"columns": ["Compound", "Study target", "Output unit", "Tm shift relative to glycine control"],
 "data": [
  ["COc1ccc(Cl)cc1NS(=O)(=O)c1cccc(C(=O)NC2CCC(O)CC2)c1 (stereo unspecified)", "Glutamate receptor ionotropic, NMDA 3A (GRIN3A) ligand-binding domain", "%", 0.97],
  ["Clc1ccc2nc(CSc3ccccc3)cn2c1", "Glutamate receptor ionotropic, NMDA 3A (GRIN3A) ligand-binding domain", "%", 0.36],
  ["O=C(Nc1ccc2c(c1)CCC2)c1cccc(S(=O)(=O)Nc2ccccc2Cl)c1", "Glutamate receptor ionotropic, NMDA 3A (GRIN3A) ligand-binding domain", "%", 14.9],
  ["Cc1ccc(O)c(NC(=S)NC(=O)COc2ccc(Br)cc2)c1", "Glutamate receptor ionotropic, NMDA 3A (GRIN3A) ligand-binding domain", "%", 16.9],
  ["O=C(NNC(=O)c1cccc(S(=O)(=O)Nc2ccc(Cl)cc2)c1)c1ccc(=O)[nH]c1", "Glutamate receptor ionotropic, NMDA 3A (GRIN3A) ligand-binding domain", "%", 0.33],
  ["O=c1[nH]cnc(O)c1C(c1ccc(F)cc1)c1c(O)nc[nH]c1=O", "Glutamate receptor ionotropic, NMDA 3A (GRIN3A) ligand-binding domain", "%", 0.87],
  ["CN1CCN(C(=O)c2ccc(NS(=O)(=O)c3ccccc3)cc2)CC1", "Glutamate receptor ionotropic, NMDA 3A (GRIN3A) ligand-binding domain", "%", -0.09],
  ["COCCn1c(=NC(=O)c2ccccc2[N+](=O)[O-])sc2cc(S(C)(=O)=O)ccc21", "Glutamate receptor ionotropic, NMDA 3A (GRIN3A) ligand-binding domain", "%", 3.81],
  ["Cc1cc(C)c(NC(=O)CSc2nc3ccncc3[nH]2)c(C)c1", "Glutamate receptor ionotropic, NMDA 3A (GRIN3A) ligand-binding domain", "%", -0.53],
  ["Cc1noc(C)c1S(=O)(=O)N(CC(=O)Nc1ccc2c(c1)OCCO2)c1ccc(C(C)C)cc1", "Glutamate receptor ionotropic, NMDA 3A (GRIN3A) ligand-binding domain", "%", 1.36],
  ["CN(C)/C=C(/C(=O)c1ccccc1)S(=O)(=O)c1ccc(Cl)cc1", "Glutamate receptor ionotropic, NMDA 3A (GRIN3A) ligand-binding domain", "%", -1.01],
  ["CC1CN(C(=O)COC(=O)c2cccc(NS(=O)(=O)c3ccccc3)c2)CC(C)O1 (stereo unspecified)", "Glutamate receptor ionotropic, NMDA 3A (GRIN3A) ligand-binding domain", "%", 2.04],
  ["CCS(=O)(=O)c1ccc(O)c(NC(=O)COc2ccc(Cl)cc2)c1", "Glutamate receptor ionotropic, NMDA 3A (GRIN3A) ligand-binding domain", "%", 1.4],
  ["Cc1ccc(Sc2cc(C(=O)c3ccccc3C(=O)O)ccc2[N+](=O)[O-])cc1", "Glutamate receptor ionotropic, NMDA 3A (GRIN3A) ligand-binding domain", "%", 2.48],
  ["COc1ccc(S(=O)(=O)N2CCOCC2)cc1NC(=O)CSc1nnc(NC2CC2)s1", "Glutamate receptor ionotropic, NMDA 3A (GRIN3A) ligand-binding domain", "%", 1.84],
  ["COc1ccc(C(=O)Nc2cc(C)ccc2NC(=O)COc2ccccc2)cc1", "Glutamate receptor ionotropic, NMDA 3A (GRIN3A) ligand-binding domain", "%", -0.91],
  ["CCSc1nnc(SCC(=O)NNC(=O)c2ccccc2F)s1", "Glutamate receptor ionotropic, NMDA 3A (GRIN3A) ligand-binding domain", "%", 0.44],
  ["Cc1ccc(C(=O)OCC(=O)Nc2ccc(Cl)cn2)cc1S(=O)(=O)N1CCOCC1", "Glutamate receptor ionotropic, NMDA 3A (GRIN3A) ligand-binding domain", "%", 3.32],
  ["COc1cc(/C(=C/c2ccccc2)c2ccccc2)c2c(c1)oc1ccccc12", "Glutamate receptor ionotropic, NMDA 3A (GRIN3A) ligand-binding domain", "%", 3.2],
  ["CCn1c(Cc2cccs2)nnc1SCC(=O)c1ccc(C)cc1", "Glutamate receptor ionotropic, NMDA 3A (GRIN3A) ligand-binding domain", "%", 11.2],
  ["CCN(CC)S(=O)(=O)c1ccc(NC(=O)c2cccnc2Cl)c(NC(=O)c2cccnc2Cl)c1", "Glutamate receptor ionotropic, NMDA 3A (GRIN3A) ligand-binding domain", "%", -0.78]
]}

---

- Test system: Glutamate receptor ionotropic, NMDA 3A (GRIN3A) ligand-binding domain
- Procedure text: binders of NR3A ligand-binding domain, primary screen, biophysical, differential scanning fluorimetry, uHTS (AID 1259313)
- Protocol conditions: NR3A LBD differential scanning fluorimetry, at 25 µM, 0% = protein alone, 100% = glycine-bound protein
About 8,500 (2.5%) of roughly 340,000 compounds were called active.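 Rule for the calls: active = melting temperature shift of at least 10% of the positive control shift, at one fixed dose; inactive = the rest.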 The full list was thinned out, with actives kept by preference.
Possible outcomes: yes for active, no for inactive

{"columns": ["Compound", "Answer label"],
 "data": [
  ["Clc1ccc(Nc2ccc3ccccc3n2)cc1", "yes"],
  ["Nc1cc2c(cc1Br)-c1ccc(F)cc1C2=O", "no"],
  ["Cc1cccc(NC(=O)c2ccc3ccccc3n2)n1", "no"],
  ["CO[C@@H]1[C@@H](OC(N)=O)[C@@H](O)C(Oc2ccc3c(O)c(NC(=O)c4ccc(O)c(CC=C(C)C)c4)c(=O)oc3c2C)OC1(C)C (stereo partly drawn)", "no"],
  ["COC(=O)CNC(c1ccccc1Cl)c1cc(Br)ccc1NC(=O)CCN1CCOCC1 (stereo not drawn)", "no"],
  ["CC(C)(C)C(=O)Nc1cccc(-c2ccc[nH]2)n1", "yes"],
  ["Cc1cccc(NC(=O)Nc2ccc3c(c2)OCO3)n1", "no"],
  ["CCC1(c2ccccc2)NC(=O)N(CC(=O)Nc2ccccc2C(=O)NC2CCCC2)C1=O (stereo not drawn)", "no"],
  ["CCOC(=O)N1CCN(CC(=O)c2ccc3c(c2)CCN3)CC1", "no"],
  ["CC(=O)Nc1ccc(-c2csc(NC(=O)Nc3ccccc3)n2)cc1", "yes"],
  ["O=C(CSC1=NCCS1)Nc1nc(-c2ccccc2)cs1", "no"],
  ["Cc1ccc(S(=O)(=O)N2CCN=C2SCc2c(F)cccc2Cl)cc1", "no"],
  ["CC(C)(C)C(=O)Nc1ccc(-c2cn3cccnc3n2)cc1", "no"],
  ["O=C(NCc1cccnc1)C(=O)Nc1nc(-c2ccccc2)cs1", "no"],
  ["CCOC(=O)C1CCN(CC(=O)Nc2ccc(OC)c(S(=O)(=O)N3CCCCC3)c2)CC1", "no"],
  ["O=C(NNC(=O)c1ccc2ccccc2c1)c1ccc(Cl)cc1", "no"],
  ["CC(=O)Nc1ccc(Nc2cc(C)nc(Nc3ccc(NC(C)=O)cc3)n2)cc1", "no"],
  ["NC1=C([N+](=O)[O-])C(c2ccccc2)C2=C(CCCC2=O)O1 (stereo not drawn)", "no"],
  ["Cc1cccc(/C=N/NC(=O)CNc2cccc3ccccc23)n1", "no"],
  ["Cn1cccc1C1(C(F)(F)F)NCCNC1=O (stereo not drawn)", "no"],
  ["O=C(Nc1ccccc1)Nc1nc2ccccc2s1", "yes"],
  ["O=C(CCC(=O)c1cccs1)Nc1nc2ccccc2s1", "no"],
  ["CCN(CC)CCCC(C)n1c2nc(=O)[nH]c(=O)c-2nc2cc(Cl)ccc21 (stereo not drawn)", "no"]
]}

---

- Test system: Glutamate receptor ionotropic, NMDA 3A (GRIN3A) ligand-binding domain
- Procedure text: binders of NR3A ligand-binding domain, primary screen, biophysical, differential scanning fluorimetry, uHTS (AID 1259313)
- Protocol conditions: NR3A LBD differential scanning fluorimetry, at 25 µM, stronger effect = higher value, 0% = protein alone, 100% = glycine-bound protein
In all, about 340,000 compounds went through this assay and about 8,500 (2.5%) were called active. This excerpt belongs to a sample that is enriched for actives.
compounds and their reported Tm shift relative to glycine control
Property label: Tm shift relative to glycine control (%)

{"columns": ["Compound", "Property label", "Recorded number"],
 "data": [
  ["Cc1cccc(OCc2nnc(SCc3nc4cc(C(F)(F)F)ccc4c(=O)[nH]3)o2)c1", "Tm shift relative to glycine control", 15.6],
  ["CC(=O)NC(Cc1c[nH]c2ccccc12)C(=O)NCCc1ccccc1 (configuration not stated)", "Tm shift relative to glycine control", 1.08],
  ["Oc1[nH]c2ccccc2c1N=Nc1c(F)c(F)c(F)c(F)c1F", "Tm shift relative to glycine control", 9.33],
  ["COc1ccc2oc(C(=O)NCc3ccco3)c(C)c2c1", "Tm shift relative to glycine control", 0.95],
  ["O=C(Nc1ccc(C(F)(F)F)cc1)c1cccc(-n2cnnn2)c1", "Tm shift relative to glycine control", -5.14],
  ["O=C(CNC(=O)c1cccs1)N/N=C/c1cccc(Br)c1", "Tm shift relative to glycine control", -2.08],
  ["NC(=O)c1c(Nc2nc3c(F)cccc3s2)sc2c1CCCC2", "Tm shift relative to glycine control", 10.8],
  ["CNC(=O)C1CCN(S(=O)(=O)c2c(C)noc2/C=C/c2cccc(C)c2)CC1", "Tm shift relative to glycine control", 1.97],
  ["O=C(Oc1ccc(-c2nnco2)cc1)c1ccc(F)c(S(=O)(=O)N2CCOCC2)c1", "Tm shift relative to glycine control", 0.78],
  ["Cc1ccc(C(=O)NNC(=O)c2ccc3c(c2)OCCO3)cc1", "Tm shift relative to glycine control", 1.65],
  ["O=C(Nc1ccc(Cl)cn1)c1ccc2c(c1)OCCO2", "Tm shift relative to glycine control", -0.17],
  ["O=C(Nc1ccccc1)c1ccccc1NC(=O)C(F)(F)F", "Tm shift relative to glycine control", -1.92],
  ["Cc1ccc(NC(=O)CN(C)Cc2ccc(F)cc2)c([N+](=O)[O-])c1", "Tm shift relative to glycine control", 12.7],
  ["Cc1cccc(OCc2nnc(SCn3nnc4ccccc4c3=O)o2)c1", "Tm shift relative to glycine control", -0.61],
  ["O=C(Nc1c(Br)cc2c(c1Br)Cc1cc([N+](=O)[O-])ccc1-2)C(Cl)Cl", "Tm shift relative to glycine control", -1.4],
  ["COCCCNC(=O)CNC(=O)c1nn(-c2ccc(OC)cc2)c(=O)c2ccccc12", "Tm shift relative to glycine control", -1.01],
  ["O=C(Nc1ccc(-c2csc(Nc3cccc(C(F)(F)F)c3)n2)cc1)c1cccc(C(F)(F)F)c1", "Tm shift relative to glycine control", 25.4],
  ["O=C(NCc1cccs1)c1ccc2c(c1)ncn2C1CCCC1", "Tm shift relative to glycine control", -0.09],
  ["O=C(NC(Cc1c[nH]c2ccccc12)C(=O)N/N=C/c1ccc(Br)cc1)c1cccs1 (configuration not stated)", "Tm shift relative to glycine control", 19.7],
  ["COc1cc2ccccc2cc1C(=O)N(CCN(C)C)c1nc2c(F)cccc2s1", "Tm shift relative to glycine control", 3.31],
  ["O=C(Nc1c(Br)cc2c(c1Br)Cc1ccccc1-2)C(F)(F)F", "Tm shift relative to glycine control", 11.5],
  ["Cc1nc(NC(=O)c2ccc3c(c2)OCCO3)ccc1Br", "Tm shift relative to glycine control", 11.1]
]}
